Reference source: ChEMBL document CHEMBL1201862

# Test system: NCI-H522
# protocol: NCI tumour cell line growth inhibition, 48 h
Activity calls are given as the source filed them. Cut-off read from the data, not from the text of the source: active = GI50 up to about 1.1 µM and inactive = higher.
Choose the fitting class; nothing outside Yes for active, No for inactive is accepted.

COc1ccc(C2CC(=O)CC(c3ccc(OC)cc3)C23C(=O)NC(=O)NC3=O)cc1 (centres undefined) ... No
COc1nn(Cc2ccccc2F)c2ccc([N+](=O)[O-])cc12 ... No
O=C(O)CNc1c2ccccc2nc2ccccc12 ... No

What call does the record list for `Nc1nc(N)nc(CCCCc2nc(N)nc(N)n2)n1` ?
No

Field: outcome | Entry: Cc1ccccc1NC(=O)/C(=N\NC(N)=S)C(C#N)c1ccccc1 (centres undefined)
No

Recorded call for `CC1=CC[C@@]2(C)[C@@H]([C@@H]1C)[C@H]1CC[C@@H]3[C@@]4(C)CC[C@H](O)C(C)(C)[C@@H]4CC[C@@]3(C)[C@]1(C)C[C@@H]2O` ?
No

Please share the test call associated with CC1OC(n2cc(C(F)(F)F)c(=O)[nH]c2=O)C=CC1=O (centres undefined) .
No

What call does the record list for `Cc1cc(C)c2c(n1)S(=O)(=O)N(CCCN1CCN(c3cccc(Cl)c3)CC1)C(C(=O)c1ccccc1)=C2O` ?
No

For `Nc1nc(Cl)cc(/N=N\c2ccccc2)n1` , which call appears in the assay record?
No

Per the assay record, what outcome was assigned to CC(=O)OCC1OC(NC(=S)CCSc2nc3ccccc3c(=O)n2-c2ccccc2)C(OC(C)=O)C(OC(C)=O)C1OC(C)=O (centres undefined) ?
No

I would be grateful if you could indicate the recorded call for `COc1ccc2c(c1OC)OC[C@@H](C1=CC(=O)C=C(O)C1=O)C2` .
No

# outcome recorded in this test, key = `O=[N+]([O-])c1c2nc3n(c2cc2c1nc1n2CCC1)CCC3`
No

How was `COc1ccc(-c2cc(-c3ccc(Nc4ccnc5cc(Cl)ccc45)cc3)nc(N)c2C#N)cc1` classified in this test?
No

Dear colleague, could you share the recorded outcome for C=CCNC(=O)CN(CC(=O)O)C1CCCCC1N(CC(=O)O)CC(=O)O (centres undefined) when you have a moment?
No

Short answer needed: outcome of this test for CC1=CC(C)C(C)N(CCNS(=O)(=O)c2ccc(C)cc2)c2ccccc21 (centres undefined) ?
No

In this assay, the call recorded for Cc1ccc2c(c1)C(C1Cc3cccc(C)c3C1=O)OC2=O (centres undefined) was what?
No

Test call, this compound: `O=C(O)C1(Cc2ccc3c(c2)CCC3)Cc2ccccc2C1`
No

Please state the recorded outcome for this compound: `O=C(O)CCCC(=O)Nn1c(Cc2ccc(Cl)cc2)n[nH]c1=O`
No

Dear all, I need the recorded test outcome for `c1ccc(CSCCC(SCc2ccccc2)SCc2ccccc2)cc1` , thank you.
No

Dear all, I need the recorded test outcome for `CCCCC/C(=N\c1[nH]nnc1C(N)=O)OCC` , thank you.
No
